# procedure-text: Cell Viability - LYMP2-010 (AID 981);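 note: cells exposed to compound for 24 hours at 37 °C; nearly all actives have a fitted effect of over 55% in size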
# condition-context: LYMP2-010 lymphoblastoid cell viability, qHTS; series mostly up to 92.2 µM
Inconclusive results are not listed. Calls of active or inactive are those of the source. Calls come from the whole dose curve; as a rule, active = well fitted cell-killing curve with a large enough effect; inconclusive = small, poorly fitted or top-dose-only effect; inactive = flat fitted curve, though single readings scatter.
Outcome codes: active, inactive

molecule: c1ccsc1
category-label: inactive

molecule: COC(=O)CS
category-label: inactive

molecule: c1ccc2c(c1)Oc1ccccc1S2
category-label: inactive

molecule: CC(=O)c1nccs1
category-label: inactive

molecule: CCCCCCCCCCCCC1CO1 (stereo not drawn)
category-label: inactive

molecule: CC1=C(/C=C/C(C)=C/C=C/C(C)=C\C=O)C(C)(C)CCC1
category-label: active

molecule: CC(=O)C1(C)CC2=C(CCCC2(C)C)CC1C (stereo not drawn)
category-label: inactive

molecule: Cc1ccc(Cl)cc1
category-label: inactive

----------
# tested-on: Retinoic acid receptor RXR-alpha (Homo sapiens)
# procedure-text: qHTS assay for small molecule antagonists of retinoid X receptor alpha signaling (AID 588546);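 note: cells stimulated with 9-cis-retinoic acid as agonist; % is set by controls: 0 for no effect and ±100 for the full control effect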
# condition-context: HEK293T RXRa-UAS-bla, beta-lactamase ratio, antagonist mode
Records with an inconclusive call do not appear.

molecule: CC(=O)Nc1cccc(N)c1
measure-unit: %
max response: 6.6
//
molecule: Cc1cc(C)cc([N+](=O)[O-])c1
measure-unit: %
max response: 4.7
//
molecule: CCOCCO
measure-unit: %
max response: 7.78
//
molecule: Nc1cccc(S(=O)(=O)O)c1
measure-unit: %
max response: 16.1
//
molecule: Cc1ccc(C)c(N)c1
measure-unit: %
max response: 21.7
//
molecule: C=C(C)C(=O)OCC(C)O (configuration not stated)
measure-unit: %
max response: 5.46
//
molecule: CCNc1cc(O)ccc1C
measure-unit: %
max response: 1.41
//
molecule: Cc1ccc2ncccc2c1
measure-unit: %
max response: 2.87
//
molecule: CC(C)c1ccccc1
measure-unit: %
max response: 6.96
//
molecule: CC(=O)c1ccc([N+](=O)[O-])cc1
measure-unit: %
max response: 1.74
//
molecule: Nc1cc(Cl)c([N+](=O)[O-])cc1O
measure-unit: %
max response: -8.94
//
molecule: C=Cc1ccc(C=C)cc1
measure-unit: %
max response: 16.7
//
molecule: C=CCn1c(=O)n(CC=C)c(=O)n(CC=C)c1=O
measure-unit: %
max response: 6.59
//
molecule: CN(C)c1cccc(O)c1
measure-unit: %
max response: 8.46
//
molecule: Cc1cccc(C)c1O
measure-unit: %
max response: -1.13
//
molecule: CCC=O
measure-unit: %
max response: 0.991
//
molecule: C/C(C=O)=C/c1ccccc1
measure-unit: %
max response: -7.56

----------
# procedure-text: Cellular Toxicity (caspase-3) Hek293 (AID 664);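 note: cells exposed to compound for 16 h at 37 °C before readout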
# condition-context: HEK293 caspase-3 activation, DMSO = 0%, 100 µM tamoxifen = 100%; at 92.2 µM (top of the series)
Inconclusive results are not listed.
Entries annotated with measured caspase-3 activation

compound: O=C1CCC(=O)O1
measure-unit: %
caspase-3 activation: 0.163
--
compound: Cc1ccc(N(C)C)cc1
measure-unit: %
caspase-3 activation: -0.882
--
compound: O=Nc1ccc(NO)cc1
measure-unit: %
caspase-3 activation: 11.4
--
compound: CCC(C)O (stereo not given)
measure-unit: %
caspase-3 activation: -1.23
--
compound: C1COC1
measure-unit: %
caspase-3 activation: -1.66
--
compound: CCCCOCCOCCOCCCC
measure-unit: %
caspase-3 activation: -0.809
--
compound: O=C1C=CCCC1
measure-unit: %
caspase-3 activation: 3.14
--
compound: Cc1cc(C(=O)O)ccc1[N+](=O)[O-]
measure-unit: %
caspase-3 activation: 1.07
--
compound: CC(=O)OC(C)C
measure-unit: %
caspase-3 activation: 0.887
--
compound: CNC(=O)c1ccccc1
measure-unit: %
caspase-3 activation: -0.658
